TEST_SUMMARY: In vivo pharmacokinetic study in male ICR mice (compound alone)
TEST_SETTINGS: male, ICR, mouse, plasma, po, 10 mg/kg, PO 10 mg/kg (10MPK), individual mice 4#-6#; read-out: Tmax
Protocol: The pharmacokinetics profile of the newly developed antiviral compound C5N17B was subsequently evaluated in male ICR mice that were free from specific pathogens, aiming to assess its potential for therapeutic application in vivo. A total of six male ICR mice were randomly assigned to two groups. […] All samples were quantified using an LC‐MS/MS‐AR Triple Quad 5500+ (SCIEX, USA) and the ExionLC liquid phase system. […] The pharmacokinetic parameters were calculated by WinNolin 8.2 software.
PARAMETER_MEASURED: Tmax (min)
Return type: number; implicit unit min.

Answer with the recorded Tmax for the compound listed here: Cc1cncc(C(=O)N2C[C@H]3CC[C@@H](C2)N3[C@H](c2cccc(F)c2)c2cn(CCc3ccsc3)nn2)c1 [Compound C5N17B] 5

---

TEST_SUMMARY: in vivo
TEST_SETTINGS: male, ICR, mouse, po, 10 mg/kg, AUCINF_pred, C5N17B+Ritonavir, po 10 mg/kg, based on predicted Clast, individual mice
PARAMETER_MEASURED: AUC(0-inf) (ng·h/mL)
Return type: number; implicit unit ng·h/mL.

Answer with the recorded AUC(0-inf) for the molecule listed here: Cc1cncc(C(=O)N2C[C@H]3CC[C@@H](C2)N3[C@H](c2cccc(F)c2)c2cn(CCc3ccsc3)nn2)c1 [Compound C5N17B] 10800

---

TEST_SUMMARY: In vivo pharmacokinetic study in male ICR mice (compound alone)
TEST_SETTINGS: male, ICR, mouse, plasma, po, 10 mg/kg, PO 10 mg/kg, mean of mice 4#-6#; read-out: MRT0-t, Mean
PARAMETER_MEASURED: MRT last (h)
Return type: number; implicit unit h.

Answer with the recorded MRT last for the molecule listed here: Cc1cncc(C(=O)N2C[C@H]3CC[C@@H](C2)N3[C@H](c2cccc(F)c2)c2cn(CCc3ccsc3)nn2)c1 [Compound C5N17B] 1.79

---

TEST_SUMMARY: In vivo pharmacokinetic study in male ICR mice (compound alone)
TEST_SETTINGS: male, ICR, mouse, plasma, po, 10 mg/kg, p.o. 10 mg kg^−1, male ICR mice, n = 3; read-out: Cmax, p.o.
PARAMETER_MEASURED: Cmax (ng/mL)
Return type: number; implicit unit ng/mL.

Answer with the recorded Cmax for the compound listed here: Cc1cncc(C(=O)N2C[C@H]3CC[C@@H](C2)N3[C@H](c2cccc(F)c2)c2cn(CCc3ccsc3)nn2)c1 [Compound C5N17B] 40.6

---

TEST_SUMMARY: in vivo
TEST_SETTINGS: male, ICR, mouse, po, 10 mg/kg, Plasma concentration, Mean, C5N17B+Ritonavir, PO 10 mg/kg, 8 h, mean (1# BQL)
PARAMETER_MEASURED: concentration at 8 h (ng/mL)
Return type: number; implicit unit ng/mL.

Answer with the recorded concentration at 8 h for the compound listed here: Cc1cncc(C(=O)N2C[C@H]3CC[C@@H](C2)N3[C@H](c2cccc(F)c2)c2cn(CCc3ccsc3)nn2)c1 [Compound C5N17B] 490

---

TEST_SUMMARY: in vitro
TEST_SETTINGS: human, CC50, column 9, after the Calu-3 EC50 columns
PARAMETER_MEASURED: CC50 at 2 day

MOLECULE: Cc1cncc(C(=O)N2C[C@H]3CC[C@@H](C2)N3[C@@H](c2cccc(F)c2)c2cn(CCc3ccsc3)nn2)c1 [Compound C5N17A]
CC50 at 2 day: > 100 µM

# input for lookup
Answer with the recorded CC50 at 2 day for the molecule listed here: Cc1cncc(C(=O)N2C[C@H]3CC[C@@H](C2)N3[C@H](c2cccc(F)c2)c2cn(CCc3ccsc3)nn2)c1 [Compound C5N17B] > 100 µM

---

TEST_SUMMARY: in vivo
TEST_SETTINGS: male, ICR, mouse, po, 10 mg/kg, Plasma concentration (Calculated Concentration), C5N17B+Ritonavir, PO 10 mg/kg, mouse plasma, 4 h, individual mice
PARAMETER_MEASURED: concentration at 4 h (ng/mL)
Return type: number; implicit unit ng/mL.

Answer with the recorded concentration at 4 h for the molecule listed here: Cc1cncc(C(=O)N2C[C@H]3CC[C@@H](C2)N3[C@H](c2cccc(F)c2)c2cn(CCc3ccsc3)nn2)c1 [Compound C5N17B] 1180

---

log10 of EC50 values for the molecules below.
Tested on: SARS‐CoV‐2
TEST_SUMMARY: microbe, parasite or virus in culture
Format: cell-based
TEST_SETTINGS: Severe acute respiratory syndrome coronavirus 2; Vero cells, without CP‐100356; read-out: EC50 ± SD, Vero cells, without P‐gp inhibitor
Response schema: value (number) is log10 of EC50 in units of µM.

Would you please look over these solved cases?
MOLECULE: Cc1cncc(C(=O)N2C[C@H]3CC[C@@H](C2)N3C(c2cccc(F)c2)c2cn(Cc3ccc([N+](=O)[O-])cc3)nn2)c1 (stereo partly drawn) [Compound C5N6]
log10 of EC50: 0.26
//
MOLECULE: Cc1cncc(C(=O)N2C[C@H]3CC[C@@H](C2)N3C(c2cccc(F)c2)c2cccc(F)c2)c1 [AA‐625, reference compound]
log10 of EC50: 0.31
//
MOLECULE: Cc1cncc(C(=O)N2C[C@H]3CC[C@@H](C2)N3C(c2cccc(F)c2)c2cn(CCc3ccsc3)nn2)c1 (stereo partly drawn) [Compound C5N17]
log10 of EC50: 0.20
//
MOLECULE: Cc1cncc(C(=O)N2C[C@H]3CC[C@@H](C2)N3C(c2cccc(F)c2)c2cn(CS(=O)(=O)c3ccccc3)nn2)c1 (stereo partly drawn) [Compound C5N42]
log10 of EC50: 0.57
//
MOLECULE: Cc1cncc(C(=O)N2C[C@H]3CC[C@@H](C2)N3C(c2cccc(F)c2)c2cn(CCN3C(=O)c4ccccc4C3=O)nn2)c1 (stereo partly drawn) [Compound C5N21]
log10 of EC50: 1.21

# input for lookup
Please indicate recorded log10 of EC50 of O=C(c1cccnc1)N1CCN(C(c2cccc(F)c2)c2cn(CCc3ccsc3)nn2)CC1 (stereo not drawn) [Compound C4N17] measured with SARS‐CoV‐2. 0.44

---

TEST_SUMMARY: In vivo pharmacokinetic study in male ICR mice (compound alone)
TEST_SETTINGS: male, ICR, mouse, plasma, po, 10 mg/kg, PO 10 mg/kg, 2 h, mean of mice 4#-6#
PARAMETER_MEASURED: concentration at 2 h (ng/mL)
Return type: number; implicit unit ng/mL.

Answer with the recorded concentration at 2 h for the compound listed here: Cc1cncc(C(=O)N2C[C@H]3CC[C@@H](C2)N3[C@H](c2cccc(F)c2)c2cn(CCc3ccsc3)nn2)c1 [Compound C5N17B] 10.5

---

TEST_SUMMARY: In vivo pharmacokinetic study in male ICR mice (compound alone)
TEST_SETTINGS: male, ICR, mouse, plasma, iv, 2 mg/kg, IV 2 mg/kg, individual mice 1#-3#; read-out: MRT0-t
PARAMETER_MEASURED: MRT last (min)
Return type: number; implicit unit min.

Answer with the recorded MRT last for the compound listed here: Cc1cncc(C(=O)N2C[C@H]3CC[C@@H](C2)N3[C@H](c2cccc(F)c2)c2cn(CCc3ccsc3)nn2)c1 [Compound C5N17B] 5.42

---

TEST_SUMMARY: in vivo
TEST_SETTINGS: male, ICR, mouse, po, 10 mg/kg, AUClast, C5N17B+Ritonavir, po 10 mg/kg, non-compartmental output, individual mice
PARAMETER_MEASURED: AUC(0-t)

Answer with the recorded AUC(0-t) for the compound listed here: Cc1cncc(C(=O)N2C[C@H]3CC[C@@H](C2)N3[C@H](c2cccc(F)c2)c2cn(CCc3ccsc3)nn2)c1 [Compound C5N17B] 9690 ng·h/mL

---

TEST_SUMMARY: In vivo pharmacokinetic study in male ICR mice (compound alone)
TEST_SETTINGS: male, ICR, mouse, plasma, iv, 2 mg/kg, IV 2 mg/kg, […] (15 min), mouse plasma, individual mice 1#-3#; read-out: Plasma concentration (Calculated Concentration)
PARAMETER_MEASURED: concentration at […] (ng/mL)
Return type: number; implicit unit ng/mL.

Answer with the recorded concentration at […] for the compound listed here: Cc1cncc(C(=O)N2C[C@H]3CC[C@@H](C2)N3[C@H](c2cccc(F)c2)c2cn(CCc3ccsc3)nn2)c1 [Compound C5N17B] 55.3

---

TEST_SUMMARY: In vivo pharmacokinetic study in male ICR mice (compound alone)
TEST_SETTINGS: male, ICR, mouse, plasma, po, 10 mg/kg, PO 10 mg/kg, individual mice 4#-6#; read-out: F
PARAMETER_MEASURED: bioavailability (%)
Return type: number; implicit unit %.

Answer with the recorded bioavailability for the molecule listed here: Cc1cncc(C(=O)N2C[C@H]3CC[C@@H](C2)N3[C@H](c2cccc(F)c2)c2cn(CCc3ccsc3)nn2)c1 [Compound C5N17B] 9.56
